# system: JAK1 (recombinant purified GST-tagged catalytic domain) (Homo sapiens (Human), UniProt P23458);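 also: biochemical assay with HTRF read-out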
# Sequence (P23458 875-1153): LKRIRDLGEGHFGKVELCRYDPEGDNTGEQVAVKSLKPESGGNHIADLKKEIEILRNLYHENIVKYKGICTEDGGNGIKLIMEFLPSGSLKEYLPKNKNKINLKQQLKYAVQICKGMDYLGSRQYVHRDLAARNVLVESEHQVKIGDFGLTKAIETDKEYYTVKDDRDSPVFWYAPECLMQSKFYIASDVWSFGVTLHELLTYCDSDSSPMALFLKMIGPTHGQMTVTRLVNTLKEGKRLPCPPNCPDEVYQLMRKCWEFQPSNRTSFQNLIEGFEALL
# testDescription: biochemical
Response field class: string, computed from recorded IC50 by ranges LOW: < 0.3 nM; MEDIUM: ≥ 0.3 nM and < 5 nM; HIGH: ≥ 5 nM

compound: CNC1CCC(n2cc(C(N)=O)c(Nc3ccc(S(=O)(=O)C(F)(F)F)cc3)n2)[C@@H](C#N)C1 (mixture of isomers)
category: LOW

compound: N#C[C@H]1CCCC[C@@H]1n1cc(C(N)=O)c(Nc2ccc(S(=O)(=O)NCc3ccccn3)cc2)n1 (single isomer, unassigned)
category: MEDIUM

compound: N#C[C@H]1CC(N2CC[C@@H](F)C2)CC[C@@H]1n1cc(C(N)=O)c(Nc2ccc(S(=O)(=O)C(F)(F)F)cc2)n1 (single isomer, unassigned)
category: MEDIUM

compound: N#C[C@H]1C[C@@H](C(=O)N2CC(F)C2)CC[C@@H]1n1cc(C(N)=O)c(Nc2ccc(Cl)cc2)n1 (single isomer, unassigned)
category: MEDIUM

compound: N#C[C@H]1C[C@@](O)(C2CC2)CC[C@@H]1n1cc(C(N)=O)c(Nc2ccc(Cl)cc2)n1 (single isomer, unassigned)
category: HIGH

compound: COC(=O)c1ncc(Nc2nn([C@H]3CCCC[C@@H]3C#N)cc2C(N)=O)cc1C (single isomer, unassigned)
category: HIGH

compound: CC1(CNC(=O)[C@@H]2CC[C@@H](n3cc(C(N)=O)c(Nc4ccc(Cl)cc4)n3)[C@H](C#N)C2)COC1 (single isomer, unassigned)
category: HIGH

compound: CS(=O)(=O)c1ccc(Nc2nn([C@H]3CC[C@@H](O)C[C@@H]3C#N)cc2C(N)=O)cc1 (single isomer, unassigned)
category: LOW

compound: N#C[C@H]1C[C@@H](O)CC[C@@H]1n1cc(C(N)=O)c(Nc2ccc([C@@H](O)C(F)(F)F)cc2)n1 (single isomer, unassigned)
category: MEDIUM
